Every entry's value here was drawn from ChEMBL document CHEMBL2062419.

# System: Human alphaherpesvirus 1
# assay-notes: Antiviral activity against HSV1 KOS infected in HEL cells by viral CPE assay
# Type: functional, organism-based
# recorded-conditions: Human alphaherpesvirus 1, KOS
Measured EC50, listed per entry.
Give the value, in units of nM, as a plain number.

Look up EC50: CCCCCCCCCCCCCCCCOCCCOP1(=O)CO[C@@H](Cn2cnc3c(=O)[nH]c(N)nc32)CO1 (mixture of isomers)
34

What value of EC50 has been reported for the following molecule? Nc1ccn(C[C@@H](CO)OCP(=O)(O)O)c(=O)n1 [CIDOFOVIR]
930

---

# assay-notes: Selectivity index, ratio of cytotoxic CC50 for HEL cells to EC50 for HSV1 KOS
// values below are reported Ratio CC50/EC50
Respond with the number and no other words.

Worked examples follow.
[[record]]
molecule = "Nc1nc2c(ncn2C[C@H]2COP(=O)(O)CO2)c(=O)[nH]1"
endpoint_value = 26

[[record]]
molecule = "Nc1nc2c(ncn2C[C@@H](CO)OCP(=O)(O)O)c(=O)[nH]1"
endpoint_value = 50

[[record]]
molecule = "CCCCCCCCCCCCCCCCOCCCOP1(=O)CO[C@@H](Cn2cnc3c(=O)[nH]c(N)nc32)CO1 (mixture of isomers)"
endpoint_value = 559

[[record]]
molecule = "CCCCCCCCCCCCCCCCOCCCOP(=O)(O)CO[C@H](CO)Cn1cnc2c(=O)[nH]c(N)nc21"
endpoint_value = 90


Moving on to another molecule below.
Looking for the measured Ratio CC50/EC50 of "CCCCCCCCCCCCCCCCOCCCOP(=O)(O)CCOCCn1cnc2c(=O)[nH]c(N)nc21" , can you help?
19

---

# assay-notes: Cytotoxicity against HEL cells assessed as effect on cell morphology incubated for 3 days by microscopy
# Assay type: cell-based
# recorded-conditions: human
parameter: MCC at 72 h

Sample records with MCC at 72 h:
[[record]]
compound = "Nc1ccn(C[C@@H](CO)OCP(=O)(O)O)c(=O)n1"
endpoint_value = "> 317 µM"

[[record]]
compound = "CCCCCCCCCCCCCCCCOCCCOP(=O)(O)CO[C@H](CO)Cn1cnc2c(=O)[nH]cnc21"
endpoint_value = "≥ 34 µM"


Could you tell me which MCC at 72 h is on file for "CCCCCCCCCCCCCCCCOCCCOP(=O)(CCOCCn1cnc2c(=O)[nH]c(N)nc21)OCCCOCCCCCCCCCCCCCCCC" ?
≥ 23 µM

What MCC at 72 h value was documented for this compound, "CCCCCCCCCCCCCCCCOCCCOP(=O)(CO[C@H](CO)Cn1cnc2c(=O)[nH]c(N)nc21)OCCCOCCCCCCCCCCCCCCCC" ?
≥ 22.6 µM

Please look up its MCC at 72 h: CCCCCCCCCCCCCCCCOCCCOP1(=O)CO[C@@H](Cn2cnc3c(=O)[nH]cnc32)CO1 (mixture of isomers)
≥ 7 µM

May I ask what MCC at 72 h has been recorded for "Nc1nc(O)c2ncn(COC(CO)CO)c2n1" ?
> 394 µM

Query (compound): "CCCCCCCCCCCCCCCCOCCCOP(=O)(CCOCCn1cnc2c(=O)[nH]cnc21)OCCCOCCCCCCCCCCCCCCCC" ; field requested: MCC at 72 h
≥ 117 µM

So what's the measured MCC at 72 h for this one? "CCCCCCCCCCCCCCCCOCCCOP(=O)(O)CCOCCn1cnc2c(=O)[nH]cnc21"
175 µM

Looking for the measured MCC at 72 h of "Nc1nc2c(ncn2C[C@@H](CO)OCP(=O)(O)O)c(=O)[nH]1" , can you help?
> 100 µM

Recorded MCC at 72 h of "CCCCCCCCCCCCCCCCOCCCOP(=O)(O)CO[C@H](CO)Cn1cnc2c(=O)[nH]c(N)nc21" , please.
≥ 1.3 µM

# query: MCC at 72 h of entry "CCCCCCCCCCCCCCCCOCCCOP(=O)(O)CCOCCn1cnc2c(=O)[nH]c(N)nc21"
≥ 34 µM

Quick check: MCC at 72 h of "CCCCCCCCCCCCCCCCOCCCOP(=O)(CO[C@H](CO)Cn1cnc2c(=O)[nH]cnc21)OCCCOCCCCCCCCCCCCCCCC" ?
≥ 23 µM

I would be grateful if you could share the reported MCC at 72 h for "Nc1nc2c(ncn2COCCO)c(=O)[nH]1" .
> 444 µM

// lookup MCC at 72 h for "Nc1nc2c(ncn2C[C@H]2COP(=O)(O)CO2)c(=O)[nH]1"
> 100 µM

Look at this compound and give its reported MCC at 72 h. "O=c1[nH]c(=O)n([C@H]2C[C@H](O)[C@@H](CO)O2)cc1/C=C/Br"
> 300 µM

Using the record for CCCCCCCCCCCCCCCCOCCCOP1(=O)CO[C@@H](Cn2cnc3c(=O)[nH]c(N)nc32)CO1 (mixture of isomers) , report its MCC at 72 h.
≥ 171 µM

---

# Test system: Human alphaherpesvirus 2
# assay-notes: Antiviral activity against HSV2 G infected in HEL cells by viral CPE assay
# Format: functional, organism-based
# recorded-conditions: Human alphaherpesvirus 2, strain G
The following molecules are listed with their measured pEC50 values.
Hey, just a heads up that pEC50 is the negative log base 10 of the concentration in molar.

[[record]]
structure_smiles_string = "Nc1nc(O)c2ncn(COC(CO)CO)c2n1"
endpoint_value = 7.54

[[record]]
structure_smiles_string = "O=c1[nH]c(=O)n([C@H]2C[C@H](O)[C@@H](CO)O2)cc1/C=C/Br"
endpoint_value = 3.98

[[record]]
structure_smiles_string = "Nc1nc2c(ncn2C[C@H]2COP(=O)(O)CO2)c(=O)[nH]1"
endpoint_value = 6.18


Here's the next entry for you.
pEC50 lookup needed for "Nc1nc2c(ncn2C[C@@H](CO)OCP(=O)(O)O)c(=O)[nH]1" , thanks.
6.11

---

EC50 values, listed per item
# Test system: Felid alphaherpesvirus 1
# assay-notes: Antiviral activity against Feline herpesvirus infected in CRFK cells by viral CPE assay
# Assay type: functional, organism-based
# recorded-conditions: Felid alphaherpesvirus 1, CRFK

Please review the entries below; each comes with its answer.
[[record]]
compound = "CCCCCCCCCCCCCCCCOCCCOP(=O)(CCOCCn1cnc2c(=O)[nH]cnc21)OCCCOCCCCCCCCCCCCCCCC"
endpoint_value = "> 23400 nM"

[[record]]
compound = "CCCCCCCCCCCCCCCCOCCCOP(=O)(CCOCCn1cnc2c(=O)[nH]c(N)nc21)OCCCOCCCCCCCCCCCCCCCC"
endpoint_value = "> 115000 nM"

[[record]]
compound = "CCCCCCCCCCCCCCCCOCCCOP(=O)(O)CCOCCn1cnc2c(=O)[nH]cnc21"
endpoint_value = "> 35000 nM"

[[record]]
compound = "CCCCCCCCCCCCCCCCOCCCOP(=O)(O)CO[C@H](CO)Cn1cnc2c(=O)[nH]c(N)nc21"
endpoint_value = "> 1330 nM"

[[record]]
compound = "Nc1nc(O)c2ncn(COC(CO)CO)c2n1"
endpoint_value = "1150 nM"

[[record]]
compound = "CCCCCCCCCCCCCCCCOCCCOP1(=O)CO[C@@H](Cn2cnc3c(=O)[nH]c(N)nc32)CO1 (mixture of isomers)"
endpoint_value = "430 nM"


Recorded EC50 for "CCCCCCCCCCCCCCCCOCCCOP(=O)(O)CCOCCn1cnc2c(=O)[nH]c(N)nc21" , please?
> 171000 nM

Using the record for "CCCCCCCCCCCCCCCCOCCCOP(=O)(CO[C@H](CO)Cn1cnc2c(=O)[nH]cnc21)OCCCOCCCCCCCCCCCCCCCC" , report its EC50.
> 115000 nM

Tell me the measured EC50 of CCCCCCCCCCCCCCCCOCCCOP1(=O)CO[C@@H](Cn2cnc3c(=O)[nH]cnc32)CO1 (mixture of isomers) , please.
> 176000 nM

What value of EC50 has been recorded for this entry: "Nc1nc2c(ncn2C[C@@H](CO)OCP(=O)(O)O)c(=O)[nH]1"
720 nM

What EC50 value was documented for this compound, "CCCCCCCCCCCCCCCCOCCCOP(=O)(O)CO[C@H](CO)Cn1cnc2c(=O)[nH]cnc21" ?
> 34000 nM

What does the data say about its EC50? Entry: "CCCCCCCCCCCCCCCCOCCCOP(=O)(CO[C@H](CO)Cn1cnc2c(=O)[nH]c(N)nc21)OCCCOCCCCCCCCCCCCCCCC"
> 113000 nM

Please give the measured EC50 for this compound: "Nc1nc2c(ncn2C[C@H]2COP(=O)(O)CO2)c(=O)[nH]1"
900 nM

---

# assay-notes: Selectivity index, ratio of cytotoxic CC50 for HEL cells to EC50 for HSV2 G
parameter: Ratio CC50/EC50
Would you mind answering with just the numeric figure?

In the examples that follow, each entry is paired with its recorded Ratio CC50/EC50.
[[record]]
compound = "Nc1nc2c(ncn2C[C@@H](CO)OCP(=O)(O)O)c(=O)[nH]1"
endpoint_value = 50

[[record]]
compound = "CCCCCCCCCCCCCCCCOCCCOP(=O)(O)CO[C@H](CO)Cn1cnc2c(=O)[nH]c(N)nc21"
endpoint_value = 103

[[record]]
compound = "CCCCCCCCCCCCCCCCOCCCOP(=O)(O)CCOCCn1cnc2c(=O)[nH]c(N)nc21"
endpoint_value = 14

[[record]]
compound = "CCCCCCCCCCCCCCCCOCCCOP1(=O)CO[C@@H](Cn2cnc3c(=O)[nH]c(N)nc32)CO1 (mixture of isomers)"
endpoint_value = 238


Would you kindly look at the next entry?
Which measured Ratio CC50/EC50 value corresponds to "Nc1nc2c(ncn2C[C@H]2COP(=O)(O)CO2)c(=O)[nH]1" ?
26
